Target: NADPH oxidase 4 (Homo sapiens) (UniProt Q9NPH5)
Sequence (Q9NPH5 whole entry, looked up): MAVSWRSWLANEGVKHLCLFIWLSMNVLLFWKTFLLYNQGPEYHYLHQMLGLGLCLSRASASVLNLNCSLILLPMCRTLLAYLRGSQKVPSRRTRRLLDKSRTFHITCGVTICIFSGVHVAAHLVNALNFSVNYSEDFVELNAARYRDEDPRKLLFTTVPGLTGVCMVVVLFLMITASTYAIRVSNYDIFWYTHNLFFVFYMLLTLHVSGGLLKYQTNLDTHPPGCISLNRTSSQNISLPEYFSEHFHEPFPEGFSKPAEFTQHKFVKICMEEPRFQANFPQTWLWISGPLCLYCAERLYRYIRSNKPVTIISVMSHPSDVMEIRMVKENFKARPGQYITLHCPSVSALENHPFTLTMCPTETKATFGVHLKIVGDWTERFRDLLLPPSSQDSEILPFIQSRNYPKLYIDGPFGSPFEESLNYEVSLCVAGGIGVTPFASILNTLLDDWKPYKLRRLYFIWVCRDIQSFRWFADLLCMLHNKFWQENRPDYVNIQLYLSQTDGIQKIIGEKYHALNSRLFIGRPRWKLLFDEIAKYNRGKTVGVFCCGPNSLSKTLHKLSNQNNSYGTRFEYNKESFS
Assay: NOX4-dependent H2O2 signal modulators, primary screen, NOX inhibitor project, cell-based, HEK293-NOX4, tetracycline-induced, Amplex Red fluorescence (AID 1160)
Settings: 45 min, higher = more signal, called active from +8 up or from −8 down
Binary classification by z-score, with -0.4 as an inclusive lower bound for Yes; all other cases are No.

{"columns": ["MOLECULE", "CLASS_NAME"],
 "data": [
  ["CS(=O)(=O)CCOC(=O)C1=CC(CCCO)=CC(C2CC2)N(Cc2cccc(OC(F)(F)F)c2)C=C1C(=O)OCCS(C)(=O)=O (stereo not drawn)", "Yes"],
  ["COc1ccc([Si](C)(C)[C@H]2[C@H](CCO)O[C@@]3(C(=O)N(Cc4ccccc4)c4ccc(N5CCOC5=O)cc43)[C@@H]2C)cc1", "Yes"],
  ["C=C(COC)/C(=C/C[C@@H](OC(C)=O)c1ccc(CO)o1)c1cc(C(=O)OC)ccc1OC", "Yes"],
  ["COc1cc(NN2C(C(O)c3cc(OC)c(OC)c(OC)c3)C=CC3C(=O)N(c4ccccc4)C(=O)C32)cc(OC)c1OC (stereo not drawn)", "No"],
  ["CCOC(=O)C1=CCN(S(=O)(=O)c2ccc(C)cc2)C1c1ccccc1 (stereo not drawn)", "No"],
  ["CCCCC(=C=CC[C@H](O)c1ccc(OCCO)cc1)C[C@H](O)COCc1ccccc1", "No"],
  ["C=CC[C@H](OC(=O)Nc1ccc(SC)cc1)c1ccc(OCCO)cc1", "No"],
  ["CC1(C)C(=O)C(c2ccccc2)=C2CN3C(=O)N(CCc4ccccc4)C(=O)C3(Cc3ccc(F)cc3)C=C21 (stereo not drawn)", "No"]
]}
